biological target: Human α2δ-1 subunit of Cav2.2 calcium channel (Homo sapiens, UniProt P54289); assay: Human α2δ-1 subunit of Cav2.2 calcium channel assay ([3H]-gabapentin binding); details: binding to the α2δ-1 subunit of voltage-gated calcium channels, expressed as Ki class; + also covers inhibition between 1% and 50%
Sequence (P54289 25-1103): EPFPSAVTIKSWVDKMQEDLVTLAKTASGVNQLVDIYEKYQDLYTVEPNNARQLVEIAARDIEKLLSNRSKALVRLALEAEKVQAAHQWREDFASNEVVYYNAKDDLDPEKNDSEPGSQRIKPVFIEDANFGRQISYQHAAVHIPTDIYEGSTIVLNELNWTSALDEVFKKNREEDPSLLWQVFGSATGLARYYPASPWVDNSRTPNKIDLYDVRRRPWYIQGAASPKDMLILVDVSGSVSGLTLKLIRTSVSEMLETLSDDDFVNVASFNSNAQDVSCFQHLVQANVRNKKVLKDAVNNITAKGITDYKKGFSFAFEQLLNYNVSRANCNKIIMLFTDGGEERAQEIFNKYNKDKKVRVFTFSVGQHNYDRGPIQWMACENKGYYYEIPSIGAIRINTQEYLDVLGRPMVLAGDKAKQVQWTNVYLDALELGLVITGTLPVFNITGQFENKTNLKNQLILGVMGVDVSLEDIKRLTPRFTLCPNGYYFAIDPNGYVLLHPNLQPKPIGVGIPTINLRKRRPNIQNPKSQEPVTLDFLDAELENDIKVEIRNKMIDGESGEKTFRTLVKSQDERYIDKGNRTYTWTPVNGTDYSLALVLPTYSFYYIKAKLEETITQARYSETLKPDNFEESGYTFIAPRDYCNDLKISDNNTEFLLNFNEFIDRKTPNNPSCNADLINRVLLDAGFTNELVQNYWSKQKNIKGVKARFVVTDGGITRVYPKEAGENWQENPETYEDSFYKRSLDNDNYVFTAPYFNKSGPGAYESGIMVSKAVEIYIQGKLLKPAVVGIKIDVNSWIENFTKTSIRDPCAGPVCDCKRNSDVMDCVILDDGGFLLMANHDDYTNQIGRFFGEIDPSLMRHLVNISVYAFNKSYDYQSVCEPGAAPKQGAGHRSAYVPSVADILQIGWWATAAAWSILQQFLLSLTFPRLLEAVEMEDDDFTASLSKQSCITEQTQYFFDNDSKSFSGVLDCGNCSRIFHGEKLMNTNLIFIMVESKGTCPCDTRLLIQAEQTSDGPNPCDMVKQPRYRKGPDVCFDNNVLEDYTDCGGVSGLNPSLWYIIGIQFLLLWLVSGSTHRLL
pKi: −log10 of the molar value.
experimental endpoint: pKi

Batch request: pKi for each of the following molecules.
1. CCC[C@@H](c1nc2ccc(F)cc2c(=O)n1CC)N1CCCN[C@@H](C)C1
2. CCC[C@H](c1nc2ccc(F)cc2c(=O)n1CCC)N1CCCN(CC)CC1
3. CCCC(c1nc2ccc(Br)cc2c(=O)n1CC)N1CCCNCC1 (stereo not drawn)

A)
< 5.30
> 6.30
> 6.30
